The measured values listed here are drawn from PubChem BioAssay.

TEST_DETAILS: inhibitors of mitochondrial cytochrome c release, biochemical, purified mitochondria (AID 1603);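 note: mouse liver mitochondria challenged with calcium chloride; signal normalized to the plate average as 100%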
ASSAY_SETUP: stronger effect = lower value
REPORTED_ENDPOINT: cytochrome c release ratio

Here are 5 molecules together with their reported answers.
[[record]]
molecule = "CCC1(c2ccc(N)cc2)CCC(=O)NC1=O (configuration not stated)"
reported_endpoint = "cytochrome c release ratio"
observed_value = 0.66

[[record]]
molecule = "NC(N)=NOCC[C@H](N)C(=O)O"
reported_endpoint = "cytochrome c release ratio"
observed_value = 1.27

[[record]]
molecule = "C[N+](C)(C)CC(=O)[O-]"
reported_endpoint = "cytochrome c release ratio"
observed_value = 1.34

[[record]]
molecule = "Oc1ccc(Cl)cc1"
reported_endpoint = "cytochrome c release ratio"
observed_value = 0.97

[[record]]
molecule = "CCC(=O)C(CC(C)N(C)C)(c1ccccc1)c1ccccc1 (configuration not stated)"
reported_endpoint = "cytochrome c release ratio"
observed_value = 0.89


Return reported cytochrome c release ratio. Input molecule: `CN1C[C@H](CO)C=C2c3cccc4[nH]cc(c34)C[C@H]21` 1.6

Identify measured cytochrome c release ratio associated with `Cc1cc(O)ccc1Cl` 1.22

Input `CC(=O)[O][Hg][c]1ccccc1` , output reported cytochrome c release ratio. 1.06

Consider the molecule O=C1C=C2C(=CCOC2O)O1 (configuration not stated) . State its measured cytochrome c release ratio. 0.78
